Measured values drawn from patent US4647574A for this set.

# reported Serum Triglyceride Decrease; entries follow
System: Serum Triglyceride
Method description: Hypolipidemic effect: serum triglyceride
Format: in vivo, rat (Wister strain male)
Condition notes: 100 mg/kg oral, 2 hours, fasted rats, vs control
Entry rule: numbers only, all in %.

Before answering, review these 3 worked examples.
1) CN1C(=O)NC(=O)C1O (stereo not shown) [compound 1, 5-hydroxy-1-methylhydantoin] :: 68
2) CN1C(=O)NC(O)C1=O (stereo not shown) [compound 2, 5-hydroxy-3-methylhydantoin] :: 59
3) CCCCN1C(=O)NC(=O)C1O (stereo not shown) [compound 4, 5-hydroxy-1-butylhydantoin] :: 54

Now turn to the next compound.
Provide Serum Triglyceride Decrease, tested on Serum Triglyceride, for "CN1CC(=O)NC1=O" . 45

---

Tested on: Blood Glucose
Method description: Hypoglycemic effect (modified method by Dulin et al.)
Type: in vivo, rat (Sprague-Dawley-strain male)
Condition notes: 200 mg/kg oral, 2 hours, glucose-loaded fasted rats; control 134.6 ± 2.8
The threshold is inclusive: Blood Glucose Level of exactly 90 mg/dL counts as Met; values below receive Not met.

1) CN1CC(=O)NC1=O :: Met
2) COC1C(=O)NC(=O)N1C (centres unmarked) :: Met
3) O=C1NC(=O)N(C2CCCC2)C1O (centres unmarked) [compound 15, 5-hydroxy-1-cyclopentylhydantoin] :: Not met
4) CCCCN1C(=O)NC(=O)C1O (centres unmarked) [compound 4, 5-hydroxy-1-butylhydantoin] :: Not met
5) CCN1C(=O)NC(=O)C1O (centres unmarked) [compound 3, 5-hydroxy-1-ethylhydantoin] :: Not met

State whether the measured Blood Glucose Level reaches 90 mg/dL, counting equality as reaching it, for CN1C(=O)NC(=O)C1O (centres unmarked) [compound 1, 5-hydroxy-1-methylhydantoin] Not met

I'd appreciate it if you could say whether CN1C(=O)NC(O)C1=O (centres unmarked) [compound 2, 5-hydroxy-3-methylhydantoin] has Blood Glucose Level at least equal to 90 mg/dL. Met
